Target: T1, recombinant biotinylated CD137 protein (Fc-fusion protein, R&D Systems 838-4B) (human, UniProt Q07011 24-186, biotinylated, sites not stated)
T1 construct: Bought Fc fusion; also called CD137-Fc
Assay: ELISA, lysate on biotinylated CD137-Fc
Readout Label: ELISA CD137 (RLU)
Kindly report the value followed by its unit.

Ask: Item ISOP193HR9P1B11 (designed binder, not shown: small tags and cut ends) LPAPKNLVVSRVTEDSARLSWTAPDAAFDSFEIYYFELRLGGEAIVLTVPGSERSYDLTGLKPGTEYLVTIYGVKGCGYSDPLSAIFTT : provide ELISA CD137 (RLU)
Reply: 1.66e+07 RLU

Ask: Item ISOP193ER9P1H2 (designed binder, not shown: small tags and cut ends) LPAPKNLVVSRVTEDSARLSWTAPDAAFDSFRISYLEDVYYGEAIVLTVPGSERSYDLTGLKPGTEYHVGIHGVKGGIDSFPLSAIFTT : provide ELISA CD137 (RLU)
Reply: 5.18e+06 RLU

Ask: Item ISOP193FR9P1E10 (designed binder, not shown: small tags and cut ends) LPAPKNLVVSRVTEDSARLSWTTPDAAFDSFHIHYLEGEWGGEAIVLTVPGSERSYDLTGLKPGTEYLVTIYGVKGCDWSDPLSAIFTT : provide ELISA CD137 (RLU)
Reply: 2.05e+06 RLU

Ask: Item ISOP193AR9P1B10 (designed binder, not shown: small tags and cut ends) LPAPKNLVVSRVTEDSARLSWAFQWHIFDSFLIQYQESEKVGEAIVLTVPGSERSYDLTGLKPGTEYTVSIYGVGRHYTVYDSNPLSAIFTT : provide ELISA CD137 (RLU)
Reply: 8.12e+06 RLU

Ask: Item ISOP193HR9P1D8 (designed binder, not shown: small tags and cut ends) LPAPKNLVVSRVTEDSARLSWTAPDAAFDSFDIYYLESGRDGEAIVLTVPGSERSYDLTGLKPGTEYLVSIYGVKGCGYSDPLSAIFTT : provide ELISA CD137 (RLU)
Reply: 6.27e+06 RLU

Ask: Item ISOP193HR9P1G10 (designed binder, not shown: small tags and cut ends) LPAPKNLVVSRVTEDSARLSWTAPDAAFDSFEIYYFELRLGGEAIVLTVPGSERSYDLTGLKPGTEYLVTIYGVKGGDYSPPLSAISTT : provide ELISA CD137 (RLU)
Reply: 1.56e+07 RLU

Ask: Item ISOP193ER9P1A10 (designed binder, not shown: small tags and cut ends) LPAPKNLVVSRVTEDSARLSWTAPDAAFDSFDIYYFEHPVGGEAIVLTVPGSERSYDLTGLKPGTEYLVTIYGVKGGHFSGPLSAIFTT : provide ELISA CD137 (RLU)
Reply: 1.49e+07 RLU

Ask: Item ISOP193HR9P1F8 (designed binder, not shown: small tags and cut ends) LPAPKNLVVSRVTEDSARLSWTAPDAAFDSFDIYYYELRLGGEAIVLTVPGSERSYDLTGLKPGTEYLVTIYGVKVCYYSTPLSAIFTT : provide ELISA CD137 (RLU)
Reply: 1.61e+07 RLU

Ask: Item ISOP193BR9P1E6 (designed binder, not shown: small tags and cut ends) LPAPKNLVVSRVTEDSARLSWGAITALFDSFLIQYQESEKVGEAIVLTVPGSERSYDLTGLKPGTEYTVSIYGVKFPYYYATADSNPLSAIFTT : provide ELISA CD137 (RLU)
Reply: 4.63e+06 RLU

Ask: Item ISOP193FR9P1G11 (designed binder, not shown: small tags and cut ends) LPAPKNLVVSRVTEDSARLSWTAPDAAFDSFTIYYFENENGGEAIVLTVPGSERSYDLTGLKPGTEYLVTIYGVKGCDWSDPLSAIFTT : provide ELISA CD137 (RLU)
Reply: 1.08e+07 RLU

Ask: Item ISOP193FR9P1C1 (designed binder, not shown: small tags and cut ends) LPAPKNLVVSRVTEDSARLSWTAPDAAFDSFEIYYFENENGGEAIVLTVPGSERSYDLTGLKPGTEYLVTIYGVKGCDWSDPLSAIFTT : provide ELISA CD137 (RLU)
Reply: 1.41e+07 RLU

Ask: Item ISOP193AR9P1E6 (designed binder, not shown: small tags and cut ends) LPAPKNLVVSRVTEDSARLSWKFHSPTFDSFLIQYQESEKVGEAIVLTVPGSERSYDLTGLKPGTEYTVSIYGVGRHYTVYDSNPLSAIVTT : provide ELISA CD137 (RLU)
Reply: 4.18e+06 RLU

Ask: Item ISOP193BR9P1G6 (designed binder, not shown: small tags and cut ends) LPAPKNLVVSRVTEDSARLSWDDQFEDWFDSFLIQYQESEQVGEAIVLTVPGSERSYDLTGLKPGTEYTVSIYGVHTRDWTAWNASNPLSAIFTT : provide ELISA CD137 (RLU)
Reply: 8.09e+06 RLU

Ask: Item ISOP193ER9P1B4 (designed binder, not shown: small tags and cut ends) LPAPKNLVVSHVTEDSARLSWTAPDAAFDSFDIYYFEHPVGGEAIVLTVPGSERSYDLTGLKPGTEYLVTIYGVKGGYLSMPLSAIFTT : provide ELISA CD137 (RLU)
Reply: 1.61e+07 RLU

Ask: Item ISOP193ER9P1E8 (designed binder, not shown: small tags and cut ends) LPAPKNLVVSRVTEDSARLSWTAPDAAFDSFDIYYFEHPVGGEAIVLTVPGSERSYDLTGLKPGTEYLVTIYGVKGGELSKPLSAIFTT : provide ELISA CD137 (RLU)
Reply: 1.64e+07 RLU

Ask: Item ISOP193ER9P1A3 (designed binder, not shown: small tags and cut ends) LPAPKNLVVSRVTEDSARLSWTTPDAAFDSFDIYYFEHPVGGEAIVLTVPGSERSYDLTGLKPGTEYLVTIYGVKGGYLSKPLSAIFTT : provide ELISA CD137 (RLU)
Reply: 1.42e+07 RLU

Ask: Item ISOP193ER9P1A8 (designed binder, not shown: small tags and cut ends) LPAPKNLVVSRVTEDSARLSWTAPDAAFDSLDIYYFEHPVGGEAIVLTVPGSERSYDLTGLKPGTEYLVTIYGVKGGYLSMPLSAIFTT : provide ELISA CD137 (RLU)
Reply: 1.43e+07 RLU

Ask: Item ISOP193ER9P1C4 (designed binder, not shown: small tags and cut ends) LPAPKNLVVSRVTEDSARLSWTAPDAAFDSFDIYYFEHPVGGEAIVLTVPGSERSYDLTGLKPGTEYLVTIYGVKGGIWSVPLSAIFTT : provide ELISA CD137 (RLU)
Reply: 1.55e+07 RLU
